These entries and their values trace back to patent US20260234147A1.

systemTested: α2A adrenergic receptor (Homo sapiens, UniProt P08913)
Construct: Eurofins Cerep (contract screening)
Sequence (P08913 1-465): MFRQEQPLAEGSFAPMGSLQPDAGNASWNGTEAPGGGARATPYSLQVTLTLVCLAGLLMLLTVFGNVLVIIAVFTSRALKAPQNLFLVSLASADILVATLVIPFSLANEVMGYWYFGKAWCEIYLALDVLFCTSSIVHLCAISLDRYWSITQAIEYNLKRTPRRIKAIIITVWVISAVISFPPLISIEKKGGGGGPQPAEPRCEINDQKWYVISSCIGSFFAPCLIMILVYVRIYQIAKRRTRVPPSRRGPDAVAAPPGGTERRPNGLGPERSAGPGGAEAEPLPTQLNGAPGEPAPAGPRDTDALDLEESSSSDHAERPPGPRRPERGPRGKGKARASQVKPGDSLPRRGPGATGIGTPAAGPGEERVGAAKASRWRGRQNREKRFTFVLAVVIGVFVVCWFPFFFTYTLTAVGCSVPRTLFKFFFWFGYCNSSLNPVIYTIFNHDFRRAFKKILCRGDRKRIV
assayProtocol: Radioligand binding assay (Eurofins Cerep), [3H]RX 821002 displacement
conditionContext: Alpha2A Ki ± SEM (nM), Table A4, data summary #2
Recorded Ki for the following compounds
Report as a plain number; the unit nM is understood.

Completed entries (count: 3):
1) CC[C@@H]1CN2CCc3c([nH]c4cccc(OC)c34)[C@@H]2C[C@@H]1/C(=C\OC)C(=O)N(C)C1CCCCC1 [SUSM-523] :: 187
2) CC[C@@H]1CN2CCc3c([nH]c4cccc(OC)c34)[C@@H]2C[C@@H]1/C(=C\OC)C(=O)Nc1ccccc1 [SUSM-528] :: 6580
3) CC[C@@H]1CN2CCc3c([nH]c4cccc(OC)c34)[C@@H]2C[C@@H]1/C(=C\OC)C(=O)N(C)C [SUSM-501] :: 1810

-- ask Look at this compound and give its reported Ki. [2H]C([2H])([2H])N(C(=O)/C(=C/OC)[C@H]1C[C@H]2c3[nH]c4cccc(OC)c4c3CCN2C[C@H]1CC)C([2H])([2H])[2H] [SUSM-566]
-- reply 1960
